The reader will find reported MFI values listed item by item below.
target: T1, human TMEM106B (human, UniProt Q9NUM4 2-274); test: FACS HEK+huTMEM 0.1 ug/ml;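 note: flow cytometry binding of purified mouse IgG antibodies to HEK293 cells transiently expressing TMEM106B, read as median fluorescence intensity on live cells (propidium iodide negative gating)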
T1 construct: full-length, transiently expressed on HEK293 cells, or natively expressed on HeLa, U251 and A549 cells (the cell is named under assay); also the source of the Pepscan peptides; also called huTMEM106B; huTMEM

{"Binder": "TM-11 (antibody, V domains shown) VH: QVQLKQSGPGQVQPSQSLSITCTVSGFSLSDYGVHWVRQSPGKGLEWLGVIWNNGNTDYNAAFISRLSINKDNSKSQVFFKMTSLQADDTAIYYCVRSLRPLHFDYWGQGTTVTVSS VL: DIVMTQSPSSLTMSVGQKVTMHCKSSQSLLNSNNLQNYLAWYQQKPGQSPTLLVYFASIRESGVPDRFIGSGSGTDFTLTISSVQAEDLADYFCQQHYNTPFTFGSGTKLEIR", "MFI": "16200 MFI"}
{"Binder": "TM-27 (antibody, V domains shown) VH: QVQLQQSGAELVRPGTSVKVSCKASGYALTNYLIEWVKQRPGQGLEWIGVINPGSGSTKYNEKFKGKATLTADKSSSTAYMQLSSLTSEDSAVYFCARIIYDHDWYFDVWGTGTTVTVSS VL: QIVLTQSPAIMSASPGEKVTISCSASSSISYMYWYQQKPGSSPKPWIYRTSTLASGVPARFSGSGSGTSYSLTISSMEAEDAATYYCQQYHSYPRTFGGGTKLEIK", "MFI": "1700 MFI"}
{"Binder": "TM-52 (antibody, V domains shown, mouse IgG (hybridoma)) VH: QVQLQQPGAELVKPGASVKLSCKASGYTFTNYWMHWVKQRPGQGLDWIGNIDPSDSETHYNQKFKDKATLTVDKVSSTAYMQLSSLTSEDSAVYYCARRGYYGRSPFAYWGQGTLVTVSA VL: ENVLTQSPAIMSASPGEKVTMTCSASSSVSYMHWYQQKSNTSPKLWIYDTSKLASGVPGRFSGSGSGNSYSLTISSAEAEDVATYYCFQGSGYPLTFGAGTKLELK", "MFI": "1940 MFI"}
{"Binder": "TM-26 (antibody, V domains shown) VH: QVQLQQSGAELIRPGTSVKVSCKASGYAFTNYLIEWVKKRPGQGLEWIGVINPGSGITNYNEKFKGKATLTADKSSSTAYMQLSSLTSEDSAVYFCARSDFITTVVADYWGQGTTVTVSS VL: DIVVTQTPLSLPVSFGDQVSISCRSSQSLTNYYGNTYLSWYLHKPGQSPQLLIYGISNRFSGVPDRFSGSGSGTDFTLKISTIKPEDLGMYYCLQGTHQPRTFGGGTKLEIK", "MFI": "1960 MFI"}
{"Binder": "TM-37 (antibody, V domains shown) VH: QVQLQQSGAELAKPGASVKLSCKASGYTFTSYWMHWVKQRPGQGLEWIGYVNPSSGYTKNNQKFKDKVTLTADKSSSTAYMQLSSLTYEDSAVYYCAREGGSISDWYFDVWGTGTTVTVSS VL: DIVMTQAAPSVPVTPGESVSISCRSSKSLLHSNGNTYSYWFLQRPGQSPQLLIYRMSNLASGVPDRFSGSGSGTAFTLRISRVEAEDVGVYYCMQHLEYPYTFGGGTKLEIK", "MFI": "29400 MFI"}
{"Binder": "TM-35 (antibody, V domains shown) VH: QVQLQQSGPELVRPGTSVKISCKAPGYTFTRHWMQWVRQRPGQGLEWIGEILPGSNNIYYNEKVKGKATLTVDTSSSTSYMQLSSLTSEDSAVYFCARSLYDYDGVFAYWGQGTLVTVSA VL: DVLMTQIPLSLPVSLGDQASISCRSSQSIVHRNGNTYLEWYLQKPGQSPKLLIYKVSNRFSGVPDRFSGSGSGTDFTLKISRVEAEDLGVYYCFQGSHVPYTFGGGTKLEIK", "MFI": "22600 MFI"}
{"Binder": "TM-25 (antibody, V domains shown) VH: EVQLVESGGDLVKPGGSLRLSCAASGFTFSGYGMSWIRQTPDKRLEWVATISSGGRYTVYPDSVKGRFTMSRDNVKNTLYLQMSSLKSEDTALYYCARDNFYSYAMDYWGLGTSVTVSA VL: DIVMTQAAFSNPVTLGTSASISCRSSKSLLHSNGITYLFWYLQKPGQSPQLLIYQMSNLASGVPDRFSSSGSGTDFTLRISRVEAEDVGVYYCAQNLELWTFGGGTKLEIK", "MFI": "32800 MFI"}
{"Binder": "TM-30 (antibody, V domains shown, mouse IgG (hybridoma)) VH: QVQLQQSGPELVKPGASVKLSCKASDNTFTNYDVNWVRQRPGQGLEWIGWIYPRDGTTIYNEKFKGRATLTVDTSSSTAYMELHSLTSEDSAVFFCARTLPQAMDYWGQGTSVTVSS VL: DVLMTQSPLSLPVSLGDQVSISCRSSQTIVHRNGNTYLEWYLQKPGQSPKLLIYKVSNRFSGVPDRFSGSGSGTDFTLKISRVEAEDLGVYYCFQGSHLPWTFGGGTKLEIK", "MFI": "18400 MFI"}
{"Binder": "TM-39 (antibody, V domains shown) VH: HVQRQQSGTELAKPGASVKLSCKTSGYTFTDYWMHWIKQRPGQGLEWIGFINPSSGYTKYNQNFKDKATLTADKSSSTAYMQLSSLTYEDSAVFYCAREAGSISDWYFDVWGTGTTVTVSS VL: DIVMTQAAPSIPVTPGESVSISCRSSKTLLNSNGNTYLYWFLQRPGQPPQLLIYRMSNLASGVPDRFSGSGSGTAFTLRISRVEAEDVGVYYCMQHLDYPYTFGGGTQLEIK", "MFI": "19200 MFI"}
{"Binder": "TM-42 (antibody, V domains shown) VH: QVQLQQSGAELAKPGASVKLSCKASGYTFTNYWMHWVKKRPGQGLEWIGYINPSSGYTKYNQKFKDKATLTADKSSNTAYMQLSSLTYEDSAVYYCTREGGSISDWYFDVWGTGTTVTVSS VL: DIVMTQAAPSLPVTPGESVSISCRSSKSLLHSNGNTYLYWFLQRPGQSPQLLIYRMSNLASGVPDRFSGSGSGTAFTLRISRVEAEDVGVYYCMQHLEYPYTFGGGTKLEIK", "MFI": "16700 MFI"}
